# assay details: Quantitative highthroughput screen to assess conditional lethalithy of P12 Ichikawa cells grown in RPMI1640 with untreated serum (RPMI+s) (AID 1963881); note: nearly all actives have a fitted effect of over 35% in size;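 for viability: 100% = DMSO wells and 0% = empty wells without cells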
# details: ATP luminescence, 48 h; viability; series mostly up to 45.8 µM
Results filed as inconclusive are left out. Calls of active or inactive are those of the source. Calls come from the whole dose curve; as a rule, active = well fitted cell-killing curve with a large enough effect; inconclusive = small, poorly fitted or top-dose-only effect; inactive = flat fitted curve, though single readings scatter.
Return exactly one item of 1 (active), -1 (inactive)

Name the outcome recorded for N[C@@H](Cc1ccc(N(CCCl)CCCl)cc1)C(=O)O in the assay.
1

Name the outcome recorded for C[C@@]12OC(=O)[C@]1([C@@H](O)[C@@H]1C=CCCC1)NC(=O)[C@H]2CCCl in the assay.
1

Name the outcome recorded for COc1ccc2c(c1)CN(C)CC2c1ccc(Cl)c(Cl)c1 (stereo unspecified) in the assay.
-1

Name the outcome recorded for CC(C)(O)C=CC(=O)[C@](C)(O)[C@H]1[C@H](O)C[C@]2(C)[C@@H]3CC=C4[C@@H](C=C(O)C(=O)C4(C)C)[C@]3(C)C(=O)C[C@@]12C in the assay.
1

Name the outcome recorded for NCC1(CC(=O)O)CCCCC1 in the assay.
-1

Name the outcome recorded for C[C@]12Cc3cn[nH]c3C[C@@H]1CC[C@@H]1[C@H]2CC[C@@]2(C)[C@H]1CC[C@]2(C)O in the assay.
-1

Name the outcome recorded for CCOC(=O)c1cncn1[C@H](C)c1ccccc1 in the assay.
-1

Name the outcome recorded for CC(C)C[C@H](CN)CC(=O)O in the assay.
-1

Name the outcome recorded for COc1ccc2c(c1)[C@]13CCCCC1C(C2)N(C)CC3 (stereo partly specified) in the assay.
-1

Name the outcome recorded for CN1CCN(C(=O)O[C@H]2c3nccnc3C(=O)N2c2ccc(Cl)cn2)CC1 in the assay.
-1

Name the outcome recorded for CC(C)(O)C(=O)Nc1ccc([N+](=O)[O-])c(C(F)(F)F)c1 in the assay.
1

Name the outcome recorded for CC(O)=C(C#N)C(=O)Nc1cc(Br)ccc1Br in the assay.
-1

Name the outcome recorded for CN(C)CCc1ccc(O)cc1 in the assay.
-1

Name the outcome recorded for Cn1cc(C2=C(c3cn(C4CCN(Cc5ccccn5)CC4)c4ccccc34)C(=O)NC2=O)c2ccccc21 in the assay.
-1

Name the outcome recorded for C[C@]12CC[C@H]3[C@@H](CCC4=CC(=O)CC[C@@]43C)[C@H]1CC[C@H]2OC(=O)CCC1CCCC1 in the assay.
-1

Name the outcome recorded for O=C1C=CC[C@@H]2[C@H]3CCCN4CCC[C@@H](CN12)[C@@H]34 in the assay.
-1

Name the outcome recorded for CN1C(=O)COc2c(C(=O)NC3CN4CCC3CC4)cc(Cl)cc21 (stereo unspecified) in the assay.
-1

Name the outcome recorded for CC(C)(C)[C@]1(O)C[C@@H]2OC(=O)C[C@@]23C(=O)O[C@@H]2OC(=O)[C@H](O)C213 (stereo partly specified) in the assay.
-1

Name the outcome recorded for O=P1(NCCCl)OCCCN1CCCl (stereo unspecified) in the assay.
-1

Name the outcome recorded for c1cc2c(cc1[C@H]1OC[C@H]3[C@H]1CO[C@H]3c1ccc3c(c1)OCO3)OCO2 in the assay.
-1

Name the outcome recorded for COC[C@H]1OC(=O)c2coc3c2[C@@]1(C)C1=C(C3=O)C2CCC(=O)[C@@]2(C)C[C@H]1OC(C)=O (stereo partly specified) in the assay.
-1
